Target: T1, human CD40L, membrane-bound on cells (human, UniProt P29965 1-261)
T1 sequence: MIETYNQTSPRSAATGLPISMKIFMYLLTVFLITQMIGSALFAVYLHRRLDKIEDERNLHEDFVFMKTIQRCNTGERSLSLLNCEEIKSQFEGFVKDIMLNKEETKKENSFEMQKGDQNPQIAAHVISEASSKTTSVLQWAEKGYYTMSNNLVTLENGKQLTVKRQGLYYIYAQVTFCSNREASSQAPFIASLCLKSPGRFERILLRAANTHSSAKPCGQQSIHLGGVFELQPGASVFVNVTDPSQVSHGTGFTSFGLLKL
Assay: cell-based or functional assay
Would you kindly list CHO-hCD40L-driven Human B Cell Proliferation EC50 for each of these binders?
Give bare numbers, in nM.

Please state, for each entry, its recorded CHO-hCD40L-driven Human B Cell Proliferation EC50.
1. 2h572-635-CT Long Fc (Fc fusion, not shown: linker and CT Long Fc (CT-L2)) EVQLLESGGGLVQPGGSLRLSCAASGFTFNWELMGWARQAPGKGLEWVSGIEGPGDVTYYADSVKGRFTISRDNSKNTLYLQMNSLRAEDTAVYYCVKVGKDSKSDYRGQGTLVTVSS
2. 2h572-614-CT Long Fc (Fc fusion, not shown: linker and CT Long Fc (CT-L2)) EVQLLESGGGLVQPGGSLRLSCAASGFTFNWQLMGWVRQAPGKGLEWVSGIEGPGDVTYYADSVKGRFTISRDNSKNTLYLQMNSLRAEDTAVYYCVKVGKDAKSDYRGQGTLVTVSS
3. 2h572-608-CT Long Fc (Fc fusion, not shown: linker and CT Long Fc (CT-L2)) EVQLLESGGGLVQPGGSLRLSCAASGFTFNWELMGWARQAPGKGLEWVSGIEGPGDVTYYADSVKGRFTISRDNSKNTLYLQMNSLRAEDTAVYYCVKVGKESNSDYRGQGTLVTVSS

[2, 2, 2]
